This collection of values is drawn from ChEMBL document CHEMBL1123525.

- Test system: L1210
- assay-comment: Compound was evaluated for inhibitory activity against L-1210 leukemic cells in vitro; Range 1.8x10E-8 to 2x10E-7 M
- Type: functional
- conditions: Mus musculus, read-out: ID50 (the source's name)
parameter: IC50

Look at this compound and give its reported IC50. Cc1c(CNc2ccc(C(=O)NC(CCC(=O)O)C(=O)O)cc2)cnc2nc(N)nc(N)c12 (stereo unspecified) 200 nM
